Reported % Hoechst-high responders by item:
assay: tubulin staining increase by stabilizing compounds – imaging, high-content imaging, primary screen (AID 2205); details: HeLa tubulin immunostaining HCS, 24 h, at 10 µM; measured here: nuclear condensation Hoechst responders, stronger effect = higher value, share of cells brighter than vehicle mean+2SD
About 1,600 (0.8%) of roughly 200,000 compounds were called active. The list comes from a sample in which actives are over-represented; it also holds close analogues and randomly drawn compounds.
Just the number please, in %, no unit attached.

Worked cases, answers included:
compound: O=C(CCn1ccc([N+](=O)[O-])n1)Nc1nccs1
value-unit: %
% Hoechst-high responders: 2.43
//
compound: CC(=O)Nc1ccc(Nc2c3ccccc3nc3ccccc23)cc1
value-unit: %
% Hoechst-high responders: 8.03
//
compound: COc1ccc(C(=O)N2CCc3cc(OC)c(OC)cc3C2c2cccc([N+](=O)[O-])c2)cc1 (stereo not given)
value-unit: %
% Hoechst-high responders: 33.6
//
compound: O=[N+]([O-])c1cccc(Nc2c3ccccc3nc3ccccc23)c1
value-unit: %
% Hoechst-high responders: 32.2

What measured % Hoechst-high responders goes with `O=C(Cn1nnc(-c2ccccc2)n1)N/N=C/c1ccc(-c2ccc(Cl)cc2)o1` ? 2.75

====

test: tubulin staining increase by stabilizing compounds – imaging, high-content imaging, primary screen (AID 2205); settings: HeLa tubulin immunostaining HCS, 24 h, at 10 µM; stronger effect = higher value, share of cells brighter than vehicle mean+2SD;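 as to % tubulin-high responders: anti alpha tubulin signal scored within the nucleus-defined area of each cell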
Among all 200,000 compounds or so, about 1,600 (0.8%) were called active. The full list was thinned out, with actives kept by preference.
Values of % tubulin-high responders greater than or equal to 2% map to label 1; values below map to label 0.

molecule: Cc1nn(CC2CC2)c(=O)n1N(C)c1ncc(C(F)(F)F)cc1Cl
cat: label 1

# check: % tubulin-high responders of `COC(=O)c1cc(C(=O)N(Cc2ccccc2)c2ccccn2)cc([N+](=O)[O-])c1` is greater than or equal to 2% label 1

Textbook exercise: given the entry `CC(=O)c1ccc(Oc2cc(C)nc(-n3nc(C)cc3C)n2)cc1` , state whether its % tubulin-high responders is greater than or equal to 2%. label 1

Is % tubulin-high responders for COC(=O)C1C(=O)NCC1c1ccc(C)cc1 (stereo unspecified) at or above 2%? label 0

Is % tubulin-high responders at least 2%? Consider `COc1ccc(C)cc1NC(=O)CSc1nnc(CC(=O)Nc2ccccc2F)n1C` label 1

API: above_or_equal(metric=% tubulin-high responders, cutoff=2%) for item COC(=O)C1=C(Nc2ccc(C)cc2)C=C(C)C(C(=O)OC)C1c1ccc(F)cc1 (stereo unspecified) label 1

====

experiment: tubulin staining increase by stabilizing compounds – imaging, high-content imaging, primary screen (AID 2205); conditions: HeLa tubulin immunostaining HCS, 24 h, at 10 µM, share of cells brighter than vehicle mean+2SD
About 1,600 (0.8%) of roughly 200,000 compounds were called active.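 How the source made its calls: active means plate Z-score above 3 for both tubulin-high and condensed-nucleus cell shares, with cell loss under 80%, at 10 µM; inactive means the rest, inconclusive results apart.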 What follows is part of a selection rich in actives, with near analogues and random picks from the rest.
Tick one outcome: active, inactive

molecule: O=C(COC(=O)c1cc(=O)[nH]c2ccccc12)Nc1nc(-c2cccc(Br)c2)cs1
cat: inactive

Please state the recorded outcome for this molecule: `COc1ccc(-n2cc(CN(C)Cc3n[nH]c(=O)[nH]3)c(-c3cccc(F)c3)n2)cc1` inactive

Status in this test for CC(C)CNC(=O)CC(NCC(C)C)C(=O)O (stereo unspecified) ? inactive

What is the recorded call for this molecule in the test? CCCCCCCC[n+]1cccc(C(=O)N2c3c(nc(N)[nH]c3=O)NC(C)C2C)c1 (stereo unspecified) inactive

How did this test come out for `CCOc1cccc(-n2nnnc2-c2ccc(OC)cc2)c1` ? active

What was the test verdict on `O=C(Nc1ccn(Cc2ccccc2)n1)c1cccc(F)c1` ? inactive

Given `O=C(Nc1ccn(Cc2ccccc2)n1)c1n[nH]c([N+](=O)[O-])c1Cl` , state the outcome it received in this test. active

# fetch the recorded call for `O=C(c1cnn(-c2ccc(Cl)cc2)c1)c1ccccc1O` here inactive

Assay outcome for `Fc1ccc2c(c1)C(c1cccnc1)=NNC(c1cccs1)=N2` : what was it? active

What outcome does the record of this test show for `COc1ccc2c(c1)C(c1cccs1)=NNC(c1cccnc1)=N2` ? inactive

Hey, what did the test say about `CCOc1cccc(-c2nnc3sc(COc4ccc(OC)cc4)nn23)c1` ? inactive

====

Catalogue of toxicity values
assay: tubulin staining increase by stabilizing compounds – imaging, high-content imaging, primary screen (AID 2205); conditions: HeLa tubulin immunostaining HCS, 24 h, at 10 µM; measured here: cytotoxicity by cell density;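 as to toxicity: 0% = mean cell density of plate MIN control wells and 100% = no cells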
Screen size: about 200,000 compounds; about 1,600 (0.8%) were called active. What follows is part of a selection rich in actives, with near analogues and random picks from the rest.
Answer in %, number only, no unit symbol.

Example cases with answers are listed next.
compound: CCOC(=O)c1ccccc1NS(=O)(=O)c1ccc(OC)cc1
result-number: 61.3
//
compound: COc1ccccc1C(c1nnnn1CC1CCCO1)N1CCN(c2ccccc2)CC1 (stereo not given)
result-number: 0.528
//
compound: O=C(/C(=C/c1cccc(Cl)c1)c1nc2ccccc2[nH]1)c1ccccc1
result-number: 68.7
//
compound: CCOc1cc(NS(=O)(=O)c2ccc(OC)cc2)c(OCC)cc1NC(C)=O
result-number: 3.17
//
compound: CCOC(=O)N1CCN(S(=O)(=O)c2ccc(C(=O)Nc3ccc(F)cc3F)cc2)CC1
result-number: 67.6

Attention now shifts to the item below.
Field request: toxicity | item: `CCOC(=O)c1sc2nc(C)nc(SCC(N)=O)c2c1C` 5.02

====

experiment: tubulin staining increase by stabilizing compounds – imaging, high-content imaging, primary screen (AID 2205); settings: HeLa tubulin immunostaining HCS, 24 h, at 10 µM; measured here: cytotoxicity by cell density;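 as to toxicity: 0% = mean cell density of plate MIN control wells and 100% = no cells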
The campaign covered roughly 200,000 compounds. About 1,600 (0.8%) were called active. This is one part of a sample in which actives are shown more often than they occur.
recorded-metric: toxicity (%)
Give the value in % but do not write % after it.

Please review the entries below; each comes with its answer.
molecule: CC(C)(C)NC(=O)Cn1cnc2cc([N+](=O)[O-])ccc2c1=O
result-number: 5.93

molecule: CCN1CCN(C(=O)c2ccccc2N(C)S(=O)(=O)c2ccc(C)cc2)CC1
result-number: 4.04

molecule: O=C(NNC(=S)NCc1ccco1)C(c1ccccc1)c1ccccc1
result-number: 3.3

molecule: NC(=O)c1ccccc1N(Cc1ccccc1)S(=O)(=O)c1ccccc1
result-number: 4.6

molecule: CCOc1ccc(NS(=O)(=O)c2ccc(C)c(C(N)=O)c2)cc1
result-number: 4.14

molecule: O=c1cc(-c2ccccc2)[nH]c2cc(F)ccc12
result-number: 37.5

molecule: O=[N+]([O-])c1ccc(Sc2n[nH]c(-c3ccco3)n2)nc1
result-number: 7.26

molecule: CN(C)Cc1ccc(F)cc1Sc1cc(Cl)ccc1Cl
result-number: 10

Request the reported toxicity associated with `COc1ccccc1-c1nc(C#N)c(N2CCC(C(N)=O)CC2)o1` 3.26

What value of measured toxicity is listed for `Cc1ccc2nc(-c3cccc(Br)c3)cc(C(=O)Nn3cnnc3)c2c1` ? 5.1

Suppose we examine the molecule `O=C(COC(=O)/C=C/c1nc2ccccc2s1)Nc1ccccc1Oc1ccccc1` ; what toxicity value has been reported? 3.33

What value of toxicity has been reported for the following molecule? `CCCc1nc2c(c(=O)c3ccccc3n2C)c(=O)n1C1CCCCCC1` 9.47

Return reported toxicity; argument: COc1ccc(/C=C/CN2CCN(Cc3ccc(C)cc3)C(CCO)C2)cc1 (stereo not drawn) 4.33

====

assay: tubulin staining increase by stabilizing compounds – imaging, high-content imaging, primary screen (AID 2205); details: HeLa tubulin immunostaining HCS, 24 h, at 10 µM; measured here: nuclear condensation Hoechst responders, stronger effect = higher value, share of cells brighter than vehicle mean+2SD
Out of some 200,000 compounds screened, about 1,600 (0.8%) were called active. For the sample, actives were picked, then their nearest neighbours and some compounds at random.
Binary call on % Hoechst-high responders: rule met from 3% upward, rule not met beneath that.

Please review the following examples before continuing.
compound: CCC(C)(C(=O)Nc1ccccc1C)N(C(=O)CNC(C)=O)c1ccc(C)cc1 (configuration not stated)
cat: rule met

compound: CCOc1ccc(NC(=O)CCC(=O)N/N=C/c2ccc([N+](=O)[O-])s2)cc1
cat: rule not met

compound: CC(C)(O)C#Cc1ncc(C(F)(F)F)cc1Cl
cat: rule not met

compound: CCN1CCN(C(=O)c2ccccc2N(C)S(=O)(=O)c2ccc(C)cc2)CC1
cat: rule not met

compound: Cc1cccc(C)c1NC(=O)CSc1ccc([N+](=O)[O-])cn1
cat: rule not met

compound: O=C(O)CCN(Cc1ccccc1)S(=O)(=O)c1c(Cl)cccc1Cl
cat: rule not met

compound: CN1CCN(C(=O)/C(=C\c2ccc3c(c2)OCO3)NC(=O)c2cccs2)CC1
cat: rule not met

compound: CCOC(=O)N1CCN(C(=O)c2ccccc2N(Cc2ccccc2)S(=O)(=O)c2ccc(OC)cc2)CC1
cat: rule met

compound: CCCOC(=O)c1[nH]c2c(c1C)C(=O)CC(c1cc(OC)c(OC)c(OC)c1)C2 (configuration not stated)
cat: rule not met

compound: Cc1cc(C)c(C#N)c(SCC(=O)Nc2ccccc2)n1
cat: rule not met

Please turn your attention to the following entry.
I'd appreciate it if you could say whether `FC(F)(F)c1nnc2ccc(N3CCN(c4ccccc4)CC3)nn12` has % Hoechst-high responders at least equal to 3%. rule not met
